# TARGET OF ASSAY: pERK1/2 (Thr202/Tyr204), NCI-1H441 (KRAS G12V) (Homo sapiens, UniProt P01116, G12V)
# Construct: pERK1/2 HTRF read-out
# Sequence (P01116 1-188 isoform P01116-2 G12V): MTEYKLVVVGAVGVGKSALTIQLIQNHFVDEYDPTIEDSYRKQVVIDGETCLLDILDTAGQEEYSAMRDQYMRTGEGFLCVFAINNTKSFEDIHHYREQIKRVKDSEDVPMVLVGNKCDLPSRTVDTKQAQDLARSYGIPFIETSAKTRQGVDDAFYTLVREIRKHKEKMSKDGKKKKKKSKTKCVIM
# METHOD SUMMARY: Assay of intracellular pERK1/2 (Thr202/Tyr204) phosphorylation in NCI-H441 cells (KRAS G12V)
# Format: cell-based
# APPLIED CONDITIONS: pERK1/2, 2 days, read-out: NCI-H441 (KRAS G12V) IC50
MEASURED ENDPOINT: pIC50
Scale explanation: pIC50 corresponds to minus log10 of a concentration expressed in moles per litre.

MOLECULE | pIC50
[2H]C1([2H])CC[C@@]2(C([2H])([2H])Oc3nc4c5c(nc(-c6cc(N)ccc6C(F)(F)F)c(F)c5n3)OCCN4C(C)c3cccnc3N)C[C@@H](F)CN12 (stereo partly shown) | 8.70

In: Name the recorded pIC50 for Cc1nc(N)cc(-c2nc3c4c(nc(OC[C@@]56CCCN5C[C@H](F)C6)nc4c2F)N(C(C)c2cccnc2N)[C@@H](C)CO3)c1C(F)(F)F (stereo partly shown) .
Out: 9.10

In: Name the recorded pIC50 for CC(c1cccnc1N)N1CCOc2nc(-c3cc(N)cc(F)c3C(F)(F)F)c(F)c3nc(OC[C@@]45CCCN4C[C@H](F)C5)nc1c23 (single isomer, unassigned) [Compound 89] .
Out: 7.37

Source of measurements: patent US20260356851A1
